- experimental_protocol: gradient 5% acetonitrile 3 min, to 50% in 2 min, to 85% in 15 min, held 3 min, 100 µL/min
- condition_label: column: Zorbax Extend-C18 2.1 x 50 mm; eluents: water / acetonitrile, 0.1% formic acid
RP-LC retention time of 800 s or higher: class 1. Under 800 s: class 0.

Reference set (3 entries):
molecule	class_label
O=C(NCCN1CCN(c2ccccc2F)CC1)C1CCCN(c2nc3cccnc3s2)C1 (stereo unspecified)	class 0
CN1CCN(CCNC(=O)C2CCCN(c3nc4ccccc4n(Cc4ccccc4)c3=O)C2)CC1 (stereo unspecified)	class 0
COc1cccc(Oc2nccn3c(=O)n(CC(=O)Nc4ccccc4C(F)(F)F)nc23)c1	class 1

Please look at the following molecule next.
# input Identify whether the reported RP-LC retention time of the following molecule is 800 s or greater: O=C(CC1CCCC1)N1CCCC(c2nc(-c3ccncc3)n[nH]2)C1 (stereo unspecified)
# output class 0
